# key: entry, value: pIC50
- system under test: CLK1 (Homo sapiens, UniProt P49759)
- Construct: GST-fusion or His-tag (not specified per kinase); purchased ProQinase GmbH; host or cells: Sf9 insect cells or E. coli (not specified per kinase)
- Sequence (P49759 whole entry, the tested form may be a part): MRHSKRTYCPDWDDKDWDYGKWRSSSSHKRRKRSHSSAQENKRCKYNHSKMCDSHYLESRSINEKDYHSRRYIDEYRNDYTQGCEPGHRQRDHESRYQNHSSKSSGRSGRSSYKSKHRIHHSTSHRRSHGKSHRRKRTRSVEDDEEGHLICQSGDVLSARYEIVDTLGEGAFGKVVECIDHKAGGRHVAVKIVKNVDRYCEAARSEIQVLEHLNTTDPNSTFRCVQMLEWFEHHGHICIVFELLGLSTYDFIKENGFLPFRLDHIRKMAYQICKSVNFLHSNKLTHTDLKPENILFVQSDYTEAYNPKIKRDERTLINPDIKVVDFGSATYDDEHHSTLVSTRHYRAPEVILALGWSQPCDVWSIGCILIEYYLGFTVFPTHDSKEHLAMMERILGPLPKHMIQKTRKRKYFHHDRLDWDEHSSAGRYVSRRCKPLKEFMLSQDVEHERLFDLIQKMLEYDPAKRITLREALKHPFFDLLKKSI
- assay summary: Radiometric protein kinase assay (33PanQinase Activity Assay), CLK1
- Format: biochemical
- conditions used: IC50 class A to E; read-out: Potency Class CLK1
pIC50: −log10 of the molar value.

Study these solved cases before continuing.
O=C1NC(NC23CC4CC(CC(C4)C2)C3)=N/C1=C\c1ccc2ncccc2n1	8.00 to 8.30
COC[C@H](NC1=N/C(=C\c2ccc3ncccc3n2)C(=O)N1)c1ccccc1	7.60 to 8.00

pIC50 lookup needed for `O=C1NC(NC23CC4CC(CC(O)(C4)C2)C3)=N/C1=C\c1ccc2ncccc2c1` , thanks.
7.60 to 8.00
